Measured values drawn from the supplement of paper PMC9170038 for this set.

test system: MS2 coat protein; assay: apparent KD of MS2 coat protein; designed switch direction (-1 OFF switch, 1 ON switch): -1; higher = weaker reporter binding; conditions: Eterna round: R95; input ligand: microRNA oligo, concentration not stated
Binary classification by apparent KD of MS2 coat protein, with 0.08 µM as an inclusive lower bound for rule met; all other cases are rule not met.

Request: Assess whether reported apparent KD of MS2 coat protein for AGUACUAACACGAAAGUGUUAGUACAAUAAGCUUGUGAAACAUGAGGAUCACCCAUGUCCUCAUAAGCUCGUCUUGU [salish99_TOv2_r3_009] (puzzle: Sensor v3, turn-off variant 2) sits at 0.08 µM or higher.
Result: rule met

Request: What about this sequence? GUUAAACAUGAGGAUCACCCAUGUAAGGAUAUGCUGCGGUCGCGCUGACGUGACUGCAGCAGAAGGUACAAAUG [Mat - Mod of JL D57] (puzzle: Exclusion 1)
Result: rule not met

Request: What about this sequence? GAUUAUGCGAGCUUUAGGGACAUGAGGAUCACCCAUGUUCGUCUUAUUGGUCUAGGUGCACUAACAUACCUAAAUCU [JMF 36] (puzzle: Sensor v3, turn-off variant 1)
Result: rule not met

Request: What about this sequence? GAUUAUGCGAGCUUUAGGGACAUGAGGAUCACCCAUGUUCGUCUUAUUGGUCUGGAUACACUAACAUACCUAAAUCU [JMF 14] (puzzle: Sensor v3, turn-off variant 1)
Result: rule not met

Request: What about this sequence? GGUUGGCGAGGAUAUACAUGAGGAUCACCCAUGUGAGAGAAAGAAGUGAGGAAGAAAAGUAGAAGGCGUUGACG [salish99_ex3_r3_053] (puzzle: Exclusion 3)
Result: rule not met
